conditions: in 2-butanone, 313.15 K
Quantity Kind: solubility (mole fraction)
Please reply with the number alone, leaving off any unit.

// recorded solubility (mole fraction) for CCOc1ncc(C)c2c1[C@H](c1ccc(C#N)cc1OC)C(C(N)=O)=C(C)N2 : 0.00587

###

conditions: in acetonitrile, 288.15 K
Quantity Kind: solubility (mole fraction)

// recorded solubility (mole fraction) for CCOc1ncc(C)c2c1[C@H](c1ccc(C#N)cc1OC)C(C(N)=O)=C(C)N2 : 0.00129

###

conditions: in isopropyl acetate, 298.15 K
Quantity Kind: solubility (mole fraction)
Please reply with the number alone, leaving off any unit.

// recorded solubility (mole fraction) for CCOc1ncc(C)c2c1[C@H](c1ccc(C#N)cc1OC)C(C(N)=O)=C(C)N2 : 0.000809

###

conditions: in acetone, 283.15 K
Quantity Kind: solubility (mole fraction)
Please reply with the number alone, leaving off any unit.

// recorded solubility (mole fraction) for CCOc1ncc(C)c2c1[C@H](c1ccc(C#N)cc1OC)C(C(N)=O)=C(C)N2 : 0.00449

###

details: in 2-butanone, 298.15 K
Quantity Kind: solubility (mole fraction)
Please reply with the number alone, leaving off any unit.

// recorded solubility (mole fraction) for CCOc1ncc(C)c2c1[C@H](c1ccc(C#N)cc1OC)C(C(N)=O)=C(C)N2 : 0.00468

###

details: in isopropanol, 308.15 K
Quantity Kind: solubility (mole fraction)
Please reply with the number alone, leaving off any unit.

// recorded solubility (mole fraction) for CCOc1ncc(C)c2c1[C@H](c1ccc(C#N)cc1OC)C(C(N)=O)=C(C)N2 : 0.00122

###

settings: in ethyl acetate, 288.15 K
Quantity Kind: solubility (mole fraction)
Please reply with the number alone, leaving off any unit.

// recorded solubility (mole fraction) for CCOc1ncc(C)c2c1[C@H](c1ccc(C#N)cc1OC)C(C(N)=O)=C(C)N2 : 0.00157

###

details: in methyl acetate, 308.15 K
Quantity Kind: solubility (mole fraction)

// recorded solubility (mole fraction) for CCOc1ncc(C)c2c1[C@H](c1ccc(C#N)cc1OC)C(C(N)=O)=C(C)N2 : 0.00229

###

details: in acetone, 303.15 K
Quantity Kind: solubility (mole fraction)
Please reply with the number alone, leaving off any unit.

// recorded solubility (mole fraction) for CCOc1ncc(C)c2c1[C@H](c1ccc(C#N)cc1OC)C(C(N)=O)=C(C)N2 : 0.00614

###

settings: in 2-butanone, 288.15 K
Quantity Kind: solubility (mole fraction)
Please reply with the number alone, leaving off any unit.

// recorded solubility (mole fraction) for CCOc1ncc(C)c2c1[C@H](c1ccc(C#N)cc1OC)C(C(N)=O)=C(C)N2 : 0.0041

###

details: in isopropyl acetate, 313.15 K
Quantity Kind: solubility (mole fraction)
Please reply with the number alone, leaving off any unit.

// recorded solubility (mole fraction) for CCOc1ncc(C)c2c1[C@H](c1ccc(C#N)cc1OC)C(C(N)=O)=C(C)N2 : 0.00113

###

conditions: in isopropyl acetate, 308.15 K
Quantity Kind: solubility (mole fraction)

// recorded solubility (mole fraction) for CCOc1ncc(C)c2c1[C@H](c1ccc(C#N)cc1OC)C(C(N)=O)=C(C)N2 : 0.000979

###

conditions: in acetonitrile, 283.15 K
Quantity Kind: solubility (mole fraction)

// recorded solubility (mole fraction) for CCOc1ncc(C)c2c1[C@H](c1ccc(C#N)cc1OC)C(C(N)=O)=C(C)N2 : 0.00111

###

settings: in methanol, 278.15 K
Quantity Kind: solubility (mole fraction)
Please reply with the number alone, leaving off any unit.

// recorded solubility (mole fraction) for CCOc1ncc(C)c2c1[C@H](c1ccc(C#N)cc1OC)C(C(N)=O)=C(C)N2 : 0.00422
